# assay_protocol: Clearance in Sprague-Dawley rat at 1.3 mg/kg, iv
# Type: ADME, organism-based
# Set-up: dose 1.3 mg/kg, route intravenous
# condition_description: in vivo
measurement_type: clearance

For the compound CC1=C(C(=O)Nc2ccc3[nH]ncc3c2)C(c2ccc(F)cc2)NC(=O)N1 (stereo unspecified) [GSK-180736A] , what clearance is on record? 49 mL/min/kg

----------
# experimental_system: Cytochrome P450 3A4 (Homo sapiens)
# Sequence (P08684 whole entry): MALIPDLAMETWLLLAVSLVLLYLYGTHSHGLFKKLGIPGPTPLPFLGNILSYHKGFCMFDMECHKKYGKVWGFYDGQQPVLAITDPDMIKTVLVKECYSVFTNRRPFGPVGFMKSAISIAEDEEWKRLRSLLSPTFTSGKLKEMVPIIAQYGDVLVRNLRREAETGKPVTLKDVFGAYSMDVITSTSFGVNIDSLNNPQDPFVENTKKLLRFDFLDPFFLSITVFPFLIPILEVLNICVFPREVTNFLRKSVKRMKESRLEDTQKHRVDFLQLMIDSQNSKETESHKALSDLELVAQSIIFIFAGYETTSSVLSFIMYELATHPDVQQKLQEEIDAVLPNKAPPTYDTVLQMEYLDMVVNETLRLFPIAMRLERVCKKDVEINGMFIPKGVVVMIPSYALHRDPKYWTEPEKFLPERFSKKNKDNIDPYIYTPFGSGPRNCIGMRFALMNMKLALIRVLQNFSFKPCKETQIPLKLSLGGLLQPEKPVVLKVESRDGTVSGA
Reported values of IC50 for individual entries
Supply the numeric figure in nM, leaving out any unit text.

Examples from the recorded data:
[
  {
    "compound": "CC1=C(C(=O)Nc2ccc3[nH]ncc3c2)C(c2ccc(F)cc2)N=C(c2ccccc2)N1 (stereo not drawn)",
    "units": "nM",
    "IC50": 350
  },
  {
    "compound": "COc1cc(C2=NC(c3ccc(Cl)cc3F)C(C(=O)Nc3ccc4[nH]ncc4c3)=C(C)N2)ccn1 (stereo not drawn)",
    "units": "nM",
    "IC50": 4300
  }
]

For the compound COc1ccc(C2=NC(c3ccc(Cl)cc3F)C(C(=O)Nc3ccc4[nH]ncc4c3)=C(C)N2)cn1 (stereo not drawn) , what IC50 is on record? 2500

----------
# assay_protocol: Volume of distribution at steady state in Sprague-Dawley rat at 1.3 mg/kg, iv
# Format: ADME, organism-based
# Design: dose 1.3 mg/kg, route intravenous
# condition_description: in vivo, read-out: Vdss
measurement_type: Vd (L/kg)
Supply the numeric figure in L/kg, leaving out any unit text.

For the compound CC1=C(C(=O)Nc2ccc3[nH]ncc3c2)C(c2ccc(F)cc2)NC(=O)N1 (stereo unspecified) [GSK-180736A] , what Vd is on record? 2.2

These measurements were taken from ChEMBL document CHEMBL1142520.
